Values from paper PMC8273886

Provide the recorded Ki for the entries that follow.
target: T1, mouse κ-opioid receptor (KOR) tagged with EGFP (mouse, UniProt P33534 1-380); test: radioligand binding; two-point displacement: 1 nM [3H]-diprenorphine with or without 10 μM or 100 nM peptide on membranes of HEK293 cells stably expressing the mouse KOR; settings: one partner purified
T1 construct: κ-opioid receptor, mouse; cloned into the pEGFP-N1 vector with BamHI and HindIII; read as EGFP at the receptor's C-terminus; also called mouse KOR; KOR-EGFP; source: HEK293, stably expressing (membrane preparations; whole cells for cAMP); HEK293, transiently transfected (BRET); not shown: EGFP, C-terminal, kept
T1 sequence (P33534 whole entry): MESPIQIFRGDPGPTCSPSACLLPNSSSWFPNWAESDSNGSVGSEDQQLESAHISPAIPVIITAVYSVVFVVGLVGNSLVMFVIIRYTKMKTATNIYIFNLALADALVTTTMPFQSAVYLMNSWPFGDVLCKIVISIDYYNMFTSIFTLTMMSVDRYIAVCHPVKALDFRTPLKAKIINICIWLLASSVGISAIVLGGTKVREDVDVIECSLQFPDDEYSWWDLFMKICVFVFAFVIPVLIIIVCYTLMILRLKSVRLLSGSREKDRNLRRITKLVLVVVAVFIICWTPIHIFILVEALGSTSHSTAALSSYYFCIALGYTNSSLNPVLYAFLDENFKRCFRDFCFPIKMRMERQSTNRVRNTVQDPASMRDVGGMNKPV
Bridge positions count the residues as written; N and C are the ends.

Per the record, cyclo(CTASIPPICYGGFLR) (disulfide 1-9 (inferred), SFTI-1 scaffold (K replaced with A) with YGGFL grafted after the second Cys; source: synthetic peptide (Fmoc chemistry, backbone cyclised, oxidised, RP-HPLC purified)) [helianorphin-7] has Ki of > 10 µM

Per the record, cyclo(CTYGGFPICFPDGR) (disulfide 1-9 (inferred), SFTI-1 scaffold with dyn A 1–4 (YGGF) grafted after CT; source: synthetic peptide (Fmoc chemistry, backbone cyclised, oxidised, RP-HPLC purified)) [helianorphin-8] has Ki of > 10 µM

Per the record, cyclo(CTYGGFLRCFPDGR) (disulfide 1-9 (inferred), SFTI-1 scaffold with dyn A 1–6 (YGGFLR) grafted after CT; source: synthetic peptide (Fmoc chemistry, backbone cyclised, oxidised, RP-HPLC purified)) [helianorphin-6] has Ki of > 10 µM
